Taken from patent US9340577B2.

- Assayed Target: DRB1*0802 (Homo sapiens, UniProt P01903+P01911, A100R/A103L/A169T/F76Y/H45Y/I96F/K41T/L162R/M171V/P40S/Q125H/Q178H/Q39Y/Q99D/R218S/R42G/S66Y/V115G/W38E)
- Assay Text: biochemical
- Format: binding
No end group written: not given here.
Under this convention, true denotes IC50 strictly below 6 µM and false denotes IC50 at or above 6 µM.

Input YRHYQYSLYGKTLEE [Peptide 1543.58] ; condition: IC50 strictly below 6 µM. Does it hold?
true

Does NGVLQGITSWGPEPC [Peptide 68.0017] have IC50 strictly under 6 µM?
false

Record LVQLKCPPLLITSNI [Peptide 89.0021] : is its IC50 strictly below 6 µM?
false

Is it true that IC50 reported for EVHVGGQVIVCPASV [Peptide 90.0015] is less than 6 µM?
false

Bench note: check whether DWCIIGMGVTPSVAE [Peptide 89.0096] shows IC50 below 6 µM
false

Say whether its IC50 is strictly beneath 6 µM. Entry: LMQLKCPPLLITSNI [Peptide 89.0057]
true
